- test.system: cytochrome P450 21A2 (Homo sapiens, UniProt P08686)
- Sequence (P08686 1-495): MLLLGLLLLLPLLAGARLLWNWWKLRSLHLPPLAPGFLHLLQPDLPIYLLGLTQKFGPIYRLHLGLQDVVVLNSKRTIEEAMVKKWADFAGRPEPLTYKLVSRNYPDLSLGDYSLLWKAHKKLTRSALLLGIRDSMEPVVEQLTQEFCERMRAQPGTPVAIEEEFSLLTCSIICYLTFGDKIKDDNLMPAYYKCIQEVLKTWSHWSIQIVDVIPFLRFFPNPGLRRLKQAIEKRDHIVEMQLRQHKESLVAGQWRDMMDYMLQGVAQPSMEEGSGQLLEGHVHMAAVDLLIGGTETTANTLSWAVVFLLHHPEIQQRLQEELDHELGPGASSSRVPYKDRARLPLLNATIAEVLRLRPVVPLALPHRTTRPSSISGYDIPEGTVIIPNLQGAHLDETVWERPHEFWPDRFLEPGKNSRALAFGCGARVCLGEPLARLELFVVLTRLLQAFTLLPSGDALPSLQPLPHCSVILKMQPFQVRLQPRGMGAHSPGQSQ
The reader will find reported pIC50 values listed item by item below.
API: returns pIC50 as number; meaning -log10 of concentration in mol/L.

c1cncc(Nc2ccc(-n3cnc4ccccc43)cc2)c1 [Compound 1c]	5.82

Turning now to a further molecule:
input: Lab note: need pIC50 for c1ccc2c(c1)ccn2-c1ccc(Nc2ccncc2)cc1 [Compound 1e] on cytochrome P450 21A2 (Homo sapiens, UniProt P08686), anyone have it?
output: 6.72

====

- test.system: CYP2D6 (Homo sapiens)
- Sequence (P10635 whole entry): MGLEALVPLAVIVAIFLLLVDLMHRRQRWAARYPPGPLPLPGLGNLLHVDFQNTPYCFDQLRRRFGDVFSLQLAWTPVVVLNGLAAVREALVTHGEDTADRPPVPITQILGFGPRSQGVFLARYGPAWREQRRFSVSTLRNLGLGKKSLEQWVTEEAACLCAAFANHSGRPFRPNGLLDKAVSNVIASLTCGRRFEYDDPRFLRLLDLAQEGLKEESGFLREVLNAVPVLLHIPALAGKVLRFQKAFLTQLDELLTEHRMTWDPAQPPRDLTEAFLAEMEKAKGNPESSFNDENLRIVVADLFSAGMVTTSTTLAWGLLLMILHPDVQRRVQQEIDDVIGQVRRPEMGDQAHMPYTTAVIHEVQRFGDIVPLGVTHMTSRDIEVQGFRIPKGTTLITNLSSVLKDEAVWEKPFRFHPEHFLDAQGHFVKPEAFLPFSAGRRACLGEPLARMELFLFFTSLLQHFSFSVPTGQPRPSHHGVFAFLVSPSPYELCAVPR
measurement.type: IC50 (nM)
Record the value in nM, omitting the unit from your answer.

input: Lab note: need IC50 for c1ccc2c(c1)ccn2-c1ccc(Nc2ccncc2)cc1 [Compound 1e] on CYP2D6 (Homo sapiens), anyone have it?
output: 2500

====

The reader will find reported Kd values listed item by item below.
- test.system: human cytochrome P450 17A1 (Homo sapiens, UniProt P05093)
- Construct: made in house
- Sequence (P05093 whole entry): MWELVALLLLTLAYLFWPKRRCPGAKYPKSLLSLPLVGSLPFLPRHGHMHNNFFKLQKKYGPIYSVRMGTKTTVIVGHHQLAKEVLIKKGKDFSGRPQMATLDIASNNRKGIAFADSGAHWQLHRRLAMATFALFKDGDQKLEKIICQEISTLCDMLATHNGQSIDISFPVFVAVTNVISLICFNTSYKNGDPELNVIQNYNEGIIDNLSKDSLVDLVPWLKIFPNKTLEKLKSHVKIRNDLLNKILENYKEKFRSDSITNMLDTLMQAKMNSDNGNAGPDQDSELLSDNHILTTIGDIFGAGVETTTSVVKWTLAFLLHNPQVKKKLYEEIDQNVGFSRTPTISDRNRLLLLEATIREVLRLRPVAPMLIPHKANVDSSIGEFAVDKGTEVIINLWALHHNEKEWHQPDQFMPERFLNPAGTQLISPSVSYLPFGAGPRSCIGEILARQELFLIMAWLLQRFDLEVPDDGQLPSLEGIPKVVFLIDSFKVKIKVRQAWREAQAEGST
- assay.explanation: Spectral binding assay (CYP17A1 ligand binding)
- stated.conditions: purified recombinant human CYP17A1, spectral titration
Please report the result as a number followed by the unit.

Reference set, count: 4
c1cncc(Nc2ccc(-n3cnc4ccccc43)cc2)c1	96 nM
c1ccc(Nc2ccc(-n3cnc4ccccc43)cc2)nc1	420 nM
c1ccc(Nc2ccc(-n3cnc4ccccc43)cc2)cc1	150 nM
c1ccc2c(c1)ncn2-c1ccc(Nc2ccncc2)cc1	290 nM

input: Suppose we examine the compound c1ccc2c(c1)ccn2-c1ccc(Nc2ccncc2)cc1 ; what Kd value has been reported?
output: 120 nM
